# System: 3T3 (murine fibroblast)
# assay.details: Cytotoxic activity, neutral red assay, 3T3 normal fibroblasts
# Assay type: cell-based
# stated.conditions: 3T3, murine fibroblast (normal cells); mean ± SEM; read-out: Cytotoxic Activity of Fractions IC50
assay.endpoint: pIC50
Would you please state pIC50, meaning minus log10 of the concentration in mol/L, as a bare number?

// sample O=C1N[C@@H](Cc2ccc(O)cc2)C(=O)N2CCC[C@@H]12 , its pIC50 was 3.50

---

# Tested on: MES–SA/DX5P-Pgp (+) (human uterus sarcome)
# assay.details: Cytotoxic activity, neutral red assay, MES-SA/DX5 Pgp (+)
# Type: cell-based
# stated.conditions: MES-SA/DX5 Pgp (+), human uterus sarcoma; mean ± SEM; read-out: Cytotoxic Activity of Fractions IC50
assay.endpoint: IC50 (µM)
Respond with the bare value in µM.

# IC50 of O=C1N[C@@H](Cc2ccc(O)cc2)C(=O)N2CCC[C@@H]12 [Compound 1, cyclo (L-Pro-L-Tyr)] = 225

Ref: paper PMC7321072
